biological target: T1, β2-AR-mCerulean (human, UniProt P07550 1-413); assay: pull-down; binding step of the binding-and-release assay: 30 μM biotinylated Gα peptide and 100 μM isoproterenol mixed 5 min with native membranes (10 nM β2-mCer) in 20 mM HEPES, 100 mM NaCl, 45 mM KCl, 5 mM MgCl2, pH 7.4; complex depleted with streptavidin-coated magnetic beads; unbound receptor from mCer fluorescence of the supernatant; KD estimated from a single point; conditions: one partner purified
T1 construct: human β2-adrenergic receptor, cDNA from Open Biosystems; Constructed 'in a similar manner' to the SPASM sensors; m1 stands for it there; also called β2-mCer; β2-mCerulean; source: HEK293T, transiently transfected, native membranes
Where no end group is shown, it is not given here. The star is where a group is joined. Biotin = O=C1N[C@H]2[C@H](CS[C@H]2CCCCC(=O)*)N1
Recorded Kd for the following binders

{"binder": "Biotin-DTENIRRVFNDCRDIIQRMHLRQYELL [biotinylated Sp]", "Kd": "~30 µM"}
{"binder": "Biotin-DTENIRFVFAAVKDTILQLNLKEYNLV (Gαq C-terminal α5 peptide (Qp), last 27 residues of Gαq; also called bioQp; bioQP; source: synthetic peptide (GenScript); not shown: biotin, N-terminal, kept) [biotinylated Qp]", "Kd": "> 200 µM"}
